System: 922993-354-T-J3-PDC complex spheroids, viability
ASSAY_NOTES: Anticancer human tumor 922993-354-T-J3-PDC patient-derived endometrial carcinoma cell line growth inhibition [GQUAD]
MEASUREMENT_PARAMETERS: curve of first compound; second compound 10 µM
ATTRIBUTE_MEASURED: IC50

# COMPOUND, ATTRIBUTE_MEASURED, VALUE
data = [
    ("COc1ncnc(C2CC2)c1-c1ncc2cnn(Cc3ccc(-c4nc(C(F)(F)F)cn4C(C)C)cc3)c2n1 + Cc1[nH]c2ccc(F)cc2c1-c1nc2c3cccnc3c3ncccc3c2[nH]1", "IC50", "> 10 µM"),
    ("C=CC(=O)N1CCN(c2nc(=O)n(-c3c(C)ccnc3C(C)C)c3nc(-c4c(O)cccc4F)c(F)cc23)C(C)C1 (stereo not given) + Cc1cnc(CNC(=O)c2c(=O)c3ccc(N4CCCN(C)CC4)nc3n3c2sc2ccccc23)cn1", "IC50", "0.0316 µM"),
    ("O=C(c1cc(Cc2n[nH]c(=O)c3ccccc23)ccc1F)N1CCN(C(=O)C2CC2)CC1 + CN(C)c1ccc(Nc2c3ccc(NC(=O)CCN4CCCC4)cc3nc3cc(NC(=O)CCN4CCCC4)ccc23)cc1", "IC50", "> 10 µM"),
    ("Cc1cccc(N(C)C(=O)C2C(O)CCN2c2nc(C)cc(C(F)(F)F)c2C#N)c1 (stereo not given) + CN(C)c1ccc(Nc2c3ccc(NC(=O)CCN4CCCC4)cc3nc3cc(NC(=O)CCN4CCCC4)ccc23)cc1", "IC50", "> 10 µM"),
    ("O=C(c1cc(Cc2n[nH]c(=O)c3ccccc23)ccc1F)N1CCN(C(=O)C2CC2)CC1 + Cc1[nH]c2ccc(F)cc2c1-c1nc2c3cccnc3c3ncccc3c2[nH]1", "IC50", "> 10 µM"),
    ("CC(C)(O)C1CCC(Nc2ccc3ncc(-c4cccc(C(F)(F)F)c4)n3n2)CC1 (stereo not given) + Cc1cnc(CNC(=O)c2c(=O)c3ccc(N4CCCN(C)CC4)nc3n3c2sc2ccccc23)cn1", "IC50", "< 0.0316 µM"),
    ("COc1ncnc(C2CC2)c1-c1ncc2cnn(Cc3ccc(-c4nc(C(F)(F)F)cn4C(C)C)cc3)c2n1 + CN(C)c1ccc(Nc2c3ccc(NC(=O)CCN4CCCC4)cc3nc3cc(NC(=O)CCN4CCCC4)ccc23)cc1", "IC50", "> 10 µM"),
    ("CC(C)n1c(=O)n(C)c2cnc3cc(F)c(-c4ccc(OCCCN5CCCCC5)nc4)cc3c21 + Cc1[nH]c2ccc(F)cc2c1-c1nc2c3cccnc3c3ncccc3c2[nH]1", "IC50", "> 10 µM"),
    ("C=CC(=O)N1CCN(c2nc(=O)n(-c3c(C)ccnc3C(C)C)c3nc(-c4c(O)cccc4F)c(F)cc23)C(C)C1 (stereo not given) + CN(C)c1ccc(Nc2c3ccc(NC(=O)CCN4CCCC4)cc3nc3cc(NC(=O)CCN4CCCC4)ccc23)cc1", "IC50", "> 10 µM"),
]

Turning to the following compound.
Data request, read-out IC50, for CC1COCCN1c1cc(-c2ccnn2C)c2ccnc(-c3ccn[nH]3)c2n1 (stereo not given) + Cc1cnc(CNC(=O)c2c(=O)c3ccc(N4CCCN(C)CC4)nc3n3c2sc2ccccc23)cn1
< 0.0316 µM

* * *

Tested on: 922993-354-T-J3-PDC complex spheroids, viability
ASSAY_NOTES: Anticancer human tumor 922993-354-T-J3-PDC cell line growth inhibition [GQUAD];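 note: spheroids exposed to compounds for seven days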;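 for viability, T/C: 100% = DMSO vehicle control viability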
MEASUREMENT_PARAMETERS: second compound 10 µM; first compound 0.00316 µM; stronger effect = lower value
Overview of reported viability, T/C across a group of molecules:
Report as a plain number; the unit % is understood.

# MOLECULE, UNIT_ABBREV, viability, T/C
rows = [
    ("CCc1c2c(nc3ccc(O)cc13)-c1cc3c(c(=O)n1C2)COC(=O)[C@]3(O)CC + Cc1cnc(CNC(=O)c2c(=O)c3ccc(N4CCCN(C)CC4)nc3n3c2sc2ccccc23)cn1", "%", 49.3),
]

Data request, read-out viability, T/C, for Cn1ncnc1[C@H]1c2n[nH]c(=O)c3cc(F)cc(c23)N[C@@H]1c1ccc(F)cc1 + Cc1cnc(CNC(=O)c2c(=O)c3ccc(N4CCCN(C)CC4)nc3n3c2sc2ccccc23)cn1
43.6

Okay, and CC[C@@]1(O)C(=O)OCc2c1cc1n(c2=O)Cc2cc3c(CN(C)C)c(O)ccc3nc2-1 + Cc1cnc(CNC(=O)c2c(=O)c3ccc(N4CCCN(C)CC4)nc3n3c2sc2ccccc23)cn1 ?
36.3

* * *

System: 922993-354-T-J3-PDC complex spheroids, viability
ASSAY_NOTES: Anticancer human tumor 922993-354-T-J3-PDC cell line growth inhibition [GQUAD];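 note: spheroids exposed to compounds for seven days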;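 for viability, T/C: 100% = DMSO vehicle control viability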
MEASUREMENT_PARAMETERS: second compound 0.316 µM; first compound 0.316 µM; stronger effect = lower value
Overview of reported viability, T/C across a group of compounds:
Report as a plain number; the unit % is understood.

The following compounds have reported results that may help.
# COMPOUND, viability, T/C / %
rows = [
    ("Cc1cccc(N(C)C(=O)C2C(O)CCN2c2nc(C)cc(C(F)(F)F)c2C#N)c1 (stereo unspecified) + CN(C)c1ccc(Nc2c3ccc(NC(=O)CCN4CCCC4)cc3nc3cc(NC(=O)CCN4CCCC4)ccc23)cc1", 95.5),
    ("C=CC(=O)N1CCN(c2nc(=O)n(-c3c(C)ccnc3C(C)C)c3nc(-c4c(O)cccc4F)c(F)cc23)C(C)C1 (stereo unspecified) + Cc1[nH]c2ccc(F)cc2c1-c1nc2c3cccnc3c3ncccc3c2[nH]1", 117),
    ("Cc1cccc(N(C)C(=O)C2C(O)CCN2c2nc(C)cc(C(F)(F)F)c2C#N)c1 (stereo unspecified) + Cc1[nH]c2ccc(F)cc2c1-c1nc2c3cccnc3c3ncccc3c2[nH]1", 74.7),
]

Turning to the following compound.
Data request, read-out viability, T/C, for COc1ccc([C@@H](O)c2cc(-c3ncnc4cc(N5CCOCC5)ccc34)c(F)cc2Cl)nn1 + Cc1[nH]c2ccc(F)cc2c1-c1nc2c3cccnc3c3ncccc3c2[nH]1
94

* * *

System: 922993-354-T-J3-PDC complex spheroids, viability
ASSAY_NOTES: Anticancer human tumor 922993-354-T-J3-PDC cell line growth inhibition [GQUAD];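 note: spheroids exposed to compounds for seven days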;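 for viability, T/C: 100% = DMSO vehicle control viability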
MEASUREMENT_PARAMETERS: second compound 0.316 µM; first compound 0.316 µM; stronger effect = lower value
ATTRIBUTE_MEASURED: viability, T/C (%)
Report as a plain number; the unit % is understood.

The following molecules have reported results that may help.
# MOLECULE, UNIT_ABBREV, viability, T/C
data = [
    ("Cc1[nH]c2ccccc2c1CCNCc1ccc(/C=C/C(=O)NO)cc1 + CN(C)c1ccc(Nc2c3ccc(NC(=O)CCN4CCCC4)cc3nc3cc(NC(=O)CCN4CCCC4)ccc23)cc1", "%", 61.7),
    ("COc1ccc([C@@H](O)c2cc(-c3ncnc4cc(N5CCOCC5)ccc34)c(F)cc2Cl)nn1 + CN(C)c1ccc(Nc2c3ccc(NC(=O)CCN4CCCC4)cc3nc3cc(NC(=O)CCN4CCCC4)ccc23)cc1", "%", 83.6),
    ("COc1ccc([C@@H](O)c2cc(-c3ncnc4cc(N5CCOCC5)ccc34)c(F)cc2Cl)nn1 + Cc1cnc(CNC(=O)c2c(=O)c3ccc(N4CCCN(C)CC4)nc3n3c2sc2ccccc23)cn1", "%", 48.1),
    ("CC(C)n1c(=O)n(C)c2cnc3cc(F)c(-c4ccc(OCCCN5CCCCC5)nc4)cc3c21 + Cc1[nH]c2ccc(F)cc2c1-c1nc2c3cccnc3c3ncccc3c2[nH]1", "%", 115),
    ("C=CC(=O)N1CCN(c2nc(=O)n(-c3c(C)ccnc3C(C)C)c3nc(-c4c(O)cccc4F)c(F)cc23)C(C)C1 (stereo unspecified) + Cc1cnc(CNC(=O)c2c(=O)c3ccc(N4CCCN(C)CC4)nc3n3c2sc2ccccc23)cn1", "%", 51.8),
]

Data request, read-out viability, T/C, for Cc1cccc(N(C)C(=O)C2C(O)CCN2c2nc(C)cc(C(F)(F)F)c2C#N)c1 (stereo unspecified) + Cc1cnc(CNC(=O)c2c(=O)c3ccc(N4CCCN(C)CC4)nc3n3c2sc2ccccc23)cn1
43.4

Okay, and CC1COCCN1c1cc(C2(S(C)(=N)=O)CC2)nc(-c2ccnc3[nH]ccc23)n1 (stereo unspecified) + Cc1cnc(CNC(=O)c2c(=O)c3ccc(N4CCCN(C)CC4)nc3n3c2sc2ccccc23)cn1 ?
50.9

Okay, and CC1COCCN1c1cc(-c2ccnn2C)c2ccnc(-c3ccn[nH]3)c2n1 (stereo unspecified) + CN(C)c1ccc(Nc2c3ccc(NC(=O)CCN4CCCC4)cc3nc3cc(NC(=O)CCN4CCCC4)ccc23)cc1 ?
46.9
